Cited source for all entries: ChEMBL document CHEMBL1136074

# METHOD_SUMMARY: Hydrolytic stability at pH 7.0 at 37 degree C; expressed as T1/2
# Type: physicochemical
# STUDY_CONDITIONS: buffer
VALUE_KIND: half-life

In the examples that follow, each entry is paired with its recorded half-life.
COc1cccc2c1C(=O)c1c(O)c3c(c(O)c1C2=O)C[C@@](O)(/C(CO)=N/NC(=O)CCCCCN1C(=O)CC(SCCO)C1=O)C[C@@H]3OC1C[C@H](N)C(O)[C@H](C)O1 (stereo partly drawn) = > 120 h
COc1cccc2c1C(=O)c1c(O)c3c(c(O)c1C2=O)C[C@@](O)(/C(CO)=N/NC(=O)CCCCCN1C(=O)CC(SCCO)C1=O)C[C@@H]3OC1C[C@H](NCCCCC(OC(C)=O)OC(C)=O)C(O)[C@H](C)O1 (stereo partly drawn) = > 100 h

The reported value for COc1cccc2c1C(=O)c1c(O)c3c(c(O)c1C2=O)C[C@@](O)(/C(CO)=N/NC(=O)CCCCCN1C(=O)CC(SCCO)C1=O)C[C@@H]3OC1C[C@H](N2CCOCC2)C(O)[C@H](C)O1 (stereo partly drawn) in terms of half-life is > 95 h
